Tested on: SEM cells
test-summary: cell viability relative to DMSO control; higher = less cytotoxic
condition-context: RPMI 5 mM glucose + 10% FBS; 48 h; 0.569 µM
assay-endpoint: cell viability (%)
Answers are plain numbers, in %.

Please review the following examples before continuing.
compound="CC[C@@H]([C@H](C)O)n1ncn(-c2ccc(N3CCN(c4ccc(OCC5CO[C@@](Cn6cncn6)(c6ccc(F)cc6F)C5)cc4)CC3)cc2)c1=O (some centres not stated)" recorded_value=93.8
compound="COc1ccc(C(=O)CC2(O)C(=O)Nc3c(Cl)ccc(Cl)c32)cc1 (configuration not stated)" recorded_value=81.2

// for each compound below, give its cell viability
1. Cc1coc2c1C(=O)C(=O)c1c-2ccc2c1CCCC2(C)C
2. COc1ccc(C(=O)c2c(C)n(CCN3CCOCC3)c3cc(I)ccc23)cc1
3. COc1c(C)c2c(c(O)c1C/C=C(\C)CCC(=O)O)C(=O)OC2

(A)
1. 104
2. 107
3. 118

// for each compound below, give its cell viability
1. C=C[C@H]1CN2CCC1C[C@@H]2C(O)c1ccnc2ccc(OC)cc12 (some centres not stated)
2. CCCCCCCCCCCCCC(=O)N[C@H](CO)[C@H](O)c1ccc([N+](=O)[O-])cc1
3. CCOC(=O)\C1=C\[C@]2(CC)CCCN3CCC4=C([C@H]23)[N]1C5=C4C=CC=C5
4. CNC(=O)c1ccc(Nc2cc(Nc3ccccc3[S+](=O)([O-])C(C)C)c3cc[nH]c3n2)nc1
5. CCc1ccc(/C=C2/SC(=S)NC2=O)cc1
6. CCCCN(CCCC)CC(O)c1cc(Cl)cc2c1-c1ccc(Cl)cc1/C2=C/c1ccc(Cl)cc1 (configuration not stated)
7. COc1ccc2c(c1)CN(C)CC2c1ccc(Cl)c(Cl)c1 (configuration not stated)

(A)
1: 82; 2: 66.5; 3: 110; 4: 101; 5: 80; 6: 94.6; 7: 131

// for each compound below, give its cell viability
1. CCCNC(=O)Nc1ccc(Oc2ncnc3cc(OC)c(OC)cc23)cc1Cl
2. O=C(O)c1cc(/N=N/c2ccc([S+](=O)([O-])Nc3ccccn3)cc2)ccc1O
3. C=CC(=O)Nc1cc2c(Nc3ccc(F)c(Cl)c3)ncnc2cc1OCCCN1CCOCC1

(A)
1. 103
2. 112
3. 80.2

// for each compound below, give its cell viability
1. OCC(O)C(O)C(O)CO (configuration not stated)
2. Cc1ccccc1C(=O)Nc1ccc(C(=O)N2CCCC(O)c3cc(Cl)ccc32)c(C)c1 (configuration not stated)

(A)
1. 80.2
2. 137

---

So I've got a bunch of compounds here, and I need their cell viability values.
Test system: P12-Ichikawa
test-summary: cell viability relative to DMSO control; higher = less cytotoxic
condition-context: RPMI 5 mM glucose + 10% dialyzed FBS; 48 h; 46.1 µM
One number for each entry, in %.

// for each compound below, give its cell viability
1. O=C(CCCN1CCN(c2ccc(F)cc2)CC1)NC1c2ccccc2CSc2ccccc21 (configuration not stated)
2. COC1=C(OCCCN2CCOCC2)C=CC\3=C1/N=C(/NC(=O)C4=CN=C(N)N=C4)N5CC/N=C35
3. CC(C)(O)CC(=O)NCCn1ccc2ncnc(Nc3ccc(Oc4cccc(C(F)(F)F)c4)c(Cl)c3)c21
4. CC(C(=O)O)c1ccc2c(c1)CC(=O)c1ccccc1S2 (configuration not stated)

(A)
[59, 45.8, 47.4, 21.2]
